# TEST PARAMETERS: in ethyl acetate, 303.15 K

[
  {
    "COMPOUND": "Cl.N=C(N=C(N)N)N1CCOCC1",
    "solubility (mole fraction)": 0.000117
  }
]

----------
# TEST PARAMETERS: in n-pentanol, 313.15 K

[
  {
    "COMPOUND": "Cl.N=C(N=C(N)N)N1CCOCC1",
    "solubility (mole fraction)": 0.000729
  }
]

----------
# TEST PARAMETERS: in n-propanol, 293.15 K

[
  {
    "COMPOUND": "Cl.N=C(N=C(N)N)N1CCOCC1",
    "solubility (mole fraction)": 0.00136
  }
]

----------
# TEST PARAMETERS: in water, 283.15 K
READOUT: solubility (mole fraction)

[
  {
    "COMPOUND": "Cl.N=C(N=C(N)N)N1CCOCC1",
    "READOUT": "solubility (mole fraction)",
    "RESULT": 0.0565
  }
]

----------
# TEST PARAMETERS: in isobutanol, 293.15 K

[
  {
    "COMPOUND": "Cl.N=C(N=C(N)N)N1CCOCC1",
    "solubility (mole fraction)": 0.000696
  }
]

----------
# TEST PARAMETERS: in isopropanol, 293.15 K

[
  {
    "COMPOUND": "Cl.N=C(N=C(N)N)N1CCOCC1",
    "solubility (mole fraction)": 0.00062
  }
]

----------
# TEST PARAMETERS: in n-butanol, 323.15 K

[
  {
    "COMPOUND": "Cl.N=C(N=C(N)N)N1CCOCC1",
    "solubility (mole fraction)": 0.00184
  }
]

----------
# TEST PARAMETERS: in n-propanol, 283.15 K

[
  {
    "COMPOUND": "Cl.N=C(N=C(N)N)N1CCOCC1",
    "solubility (mole fraction)": 0.0011
  }
]

----------
# TEST PARAMETERS: in methanol, 313.15 K

[
  {
    "COMPOUND": "Cl.N=C(N=C(N)N)N1CCOCC1",
    "solubility (mole fraction)": 0.0341
  }
]

----------
# TEST PARAMETERS: in water, 323.15 K
READOUT: solubility (mole fraction)

[
  {
    "COMPOUND": "Cl.N=C(N=C(N)N)N1CCOCC1",
    "QUANTITATIVE RESULT": 0.127
  }
]

----------
# TEST PARAMETERS: in water, 303.15 K
READOUT: solubility (mole fraction)

[
  {
    "COMPOUND": "Cl.N=C(N=C(N)N)N1CCOCC1",
    "RESULT": 0.0853
  }
]

----------
# TEST PARAMETERS: in n-pentanol, 293.15 K

[
  {
    "COMPOUND": "Cl.N=C(N=C(N)N)N1CCOCC1",
    "solubility (mole fraction)": 0.000545
  }
]

----------
# TEST PARAMETERS: in methanol, 283.15 K
READOUT: solubility (mole fraction)

[
  {
    "COMPOUND": "Cl.N=C(N=C(N)N)N1CCOCC1",
    "READOUT": "solubility (mole fraction)",
    "QUANTITATIVE RESULT": 0.013
  }
]

----------
# TEST PARAMETERS: in n-propanol, 303.15 K

[
  {
    "COMPOUND": "Cl.N=C(N=C(N)N)N1CCOCC1",
    "solubility (mole fraction)": 0.00161
  }
]

----------
# TEST PARAMETERS: in isopropanol, 283.15 K
READOUT: solubility (mole fraction)

[
  {
    "COMPOUND": "Cl.N=C(N=C(N)N)N1CCOCC1",
    "QUANTITATIVE RESULT": 0.000482
  }
]

----------
# TEST PARAMETERS: in sec-butanol, 313.15 K
READOUT: solubility (mole fraction)

[
  {
    "COMPOUND": "Cl.N=C(N=C(N)N)N1CCOCC1",
    "READOUT": "solubility (mole fraction)",
    "QUANTITATIVE RESULT": 0.000534
  }
]

----------
# TEST PARAMETERS: in ethyl acetate, 283.15 K

[
  {
    "COMPOUND": "Cl.N=C(N=C(N)N)N1CCOCC1",
    "solubility (mole fraction)": "7.7e-05"
  }
]

----------
# TEST PARAMETERS: in isobutanol, 303.15 K
READOUT: solubility (mole fraction)

[
  {
    "COMPOUND": "Cl.N=C(N=C(N)N)N1CCOCC1",
    "QUANTITATIVE RESULT": 0.000915
  }
]

----------
# TEST PARAMETERS: in acetone, 283.15 K

[
  {
    "COMPOUND": "Cl.N=C(N=C(N)N)N1CCOCC1",
    "solubility (mole fraction)": "1.9e-05"
  }
]

----------
# TEST PARAMETERS: in ethanol, 313.15 K

[
  {
    "COMPOUND": "Cl.N=C(N=C(N)N)N1CCOCC1",
    "solubility (mole fraction)": 0.00461
  }
]

----------
# TEST PARAMETERS: in n-propanol, 313.15 K

[
  {
    "COMPOUND": "Cl.N=C(N=C(N)N)N1CCOCC1",
    "solubility (mole fraction)": 0.00206
  }
]

----------
# TEST PARAMETERS: in n-pentanol, 303.15 K
READOUT: solubility (mole fraction)

[
  {
    "COMPOUND": "Cl.N=C(N=C(N)N)N1CCOCC1",
    "READOUT": "solubility (mole fraction)",
    "QUANTITATIVE RESULT": 0.00061
  }
]

----------
# TEST PARAMETERS: in isopropanol, 323.15 K

[
  {
    "COMPOUND": "Cl.N=C(N=C(N)N)N1CCOCC1",
    "solubility (mole fraction)": 0.00124
  }
]

----------
# TEST PARAMETERS: in acetone, 323.15 K
READOUT: solubility (mole fraction)

[
  {
    "COMPOUND": "Cl.N=C(N=C(N)N)N1CCOCC1",
    "QUANTITATIVE RESULT": 0.000186
  }
]

----------
# TEST PARAMETERS: in n-propanol, 323.15 K

[
  {
    "COMPOUND": "Cl.N=C(N=C(N)N)N1CCOCC1",
    "solubility (mole fraction)": 0.00279
  }
]

----------
# TEST PARAMETERS: in acetonitrile, 303.15 K

[
  {
    "COMPOUND": "Cl.N=C(N=C(N)N)N1CCOCC1",
    "solubility (mole fraction)": 0.000117
  }
]

----------
# TEST PARAMETERS: in sec-butanol, 323.15 K
READOUT: solubility (mole fraction)

[
  {
    "COMPOUND": "Cl.N=C(N=C(N)N)N1CCOCC1",
    "QUANTITATIVE RESULT": 0.000732
  }
]

----------
# TEST PARAMETERS: in acetone, 303.15 K

[
  {
    "COMPOUND": "Cl.N=C(N=C(N)N)N1CCOCC1",
    "solubility (mole fraction)": "6.2e-05"
  }
]

----------
# TEST PARAMETERS: in sec-butanol, 283.15 K
READOUT: solubility (mole fraction)

[
  {
    "COMPOUND": "Cl.N=C(N=C(N)N)N1CCOCC1",
    "QUANTITATIVE RESULT": 0.000297
  }
]

----------
# TEST PARAMETERS: in n-butanol, 313.15 K
READOUT: solubility (mole fraction)

[
  {
    "COMPOUND": "Cl.N=C(N=C(N)N)N1CCOCC1",
    "READOUT": "solubility (mole fraction)",
    "QUANTITATIVE RESULT": 0.00137
  }
]

----------
# TEST PARAMETERS: in n-butanol, 293.15 K

[
  {
    "COMPOUND": "Cl.N=C(N=C(N)N)N1CCOCC1",
    "solubility (mole fraction)": 0.000834
  }
]

----------
# TEST PARAMETERS: in sec-butanol, 293.15 K
READOUT: solubility (mole fraction)

[
  {
    "COMPOUND": "Cl.N=C(N=C(N)N)N1CCOCC1",
    "RESULT": 0.000358
  }
]

----------
# TEST PARAMETERS: in acetonitrile, 313.15 K
READOUT: solubility (mole fraction)

[
  {
    "COMPOUND": "Cl.N=C(N=C(N)N)N1CCOCC1",
    "RESULT": 0.000128
  }
]

----------
# TEST PARAMETERS: in methanol, 303.15 K

[
  {
    "COMPOUND": "Cl.N=C(N=C(N)N)N1CCOCC1",
    "solubility (mole fraction)": 0.0268
  }
]
